method: inhibition of 3D7 malaria parasite growth – strain 3D7 (AID 2306);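 note: 0% = DMSO wells and 100% = chloroquine plus artemisinin control wells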
reported conditions: P. falciparum 3D7 erythrocytic growth, LDH absorbance, 72 h; at 2 µM; hits give high values
Give measured growth inhibition for each item. Keep answers brief.
Respond numerically; units are % and should not be typed.

compound COc1cc2ccccc2cc1CCNCCCCNCCc1cc2ccccc2cc1OC , growth inhibition observed: 99

compound COc1ccc(CCNC(=O)c2ccc(-n3cc(NC(=O)c4cccnc4)cn3)cc2)cc1OC , growth inhibition observed: 90

compound CCCCCOc1ccc(C=NNc2nc(-c3ccccc3)cc(=O)[nH]2)cc1 , growth inhibition observed: 88

compound Cc1ccccc1CNc1noc(-c2sccc2Br)n1 , growth inhibition observed: 99

compound COc1cc(Cc2cnc(N)nc2N)ccc1OCc1ccc(F)c(F)c1 , growth inhibition observed: 90

compound COc1ccc(NC(=O)c2c(NC(=O)c3cccs3)sc3c2CCCC3)cc1 , growth inhibition observed: 97

====

method: human hepatoma cell viability loss – ATP luminescence, cytotoxicity control for P. falciparum antimalarial project, primary screen (AID 2303);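 note: 0% = DMSO wells and 100% = digitonin-killed cells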
reported conditions: HepG2 viability, 24-48 h, at 10 µM, hits give high values
Give measured inhibition for each item. Keep answers brief.
Respond numerically; units are % and should not be typed.

compound Cc1c(Cc2ccc(F)cc2)c(Cl)nc2nc(N)nc(N)c12 , inhibition observed: 66

compound CO/C(=C\C=C\c1cc2cc(Cl)c(Cl)cc2[nH]1)C(=O)NCCCN(C)CCN(C)c1ccccc1 , inhibition observed: 38

compound CC(=O)N(C)C1CCN(Cc2cccc(-c3ccc(-c4nc5ccc(C(F)(F)F)cc5[nH]4)cc3)c2)C1 (stereo not drawn) , inhibition observed: 31

compound Cc1ccc(Cn2nc(N3CCNCC3)ccc2=O)cc1NC(=O)Nc1ccc(-c2ccccc2)cc1 , inhibition observed: 46

compound O=C(Nc1ccccc1)Nc1ccc(-c2cccc(-c3nc4ccc(C(F)(F)F)cc4[nH]3)c2)cc1 , inhibition observed: 59

compound O=C(Nc1cc(F)cc(F)c1)N1CCOC(CCN2CCC(c3ccccc3)CC2)(c2ccc(Cl)c(Cl)c2)C1 (stereo not drawn) , inhibition observed: 31

compound CCN(CC)CC(O)Cc1c2ccc([N+](=O)[O-])cc2nc2cc(OC)c(OC)cc12 (stereo not drawn) , inhibition observed: 41

compound CN(C)c1ccc(CN2CCC(NC(=O)c3ccc(-c4cccc(Cl)c4)s3)CC2)cc1 , inhibition observed: 65

compound Cc1cc(NN=Cc2ccc([N+](=O)[O-])cc2)c2ccc(F)cc2n1 , inhibition observed: -3

compound CN=C(NC)c1cccc(NC(=O)C=Cc2ccc(C=CC(=O)Nc3cccc(C(=NC)NC)c3)cc2)c1 , inhibition observed: 21

compound Fc1cccc(Nc2nc(NCCc3ccc(Cl)cc3)nc(Nc3cccc(F)c3)n2)c1 , inhibition observed: -3

compound CN(C)Cc1cc2c(O)c(Cc3ccccc3)ccc2o1 , inhibition observed: 3

compound COc1ccc(S(=O)(=O)Nc2ccc(C(=O)NCc3ccc(C(F)(F)F)cc3)cc2)cc1N1CCN(CC2CC2)CC1 , inhibition observed: 34

compound CCc1c[nH]c2c(N3CCCCS3(=O)=O)cc(C(=O)N[C@@H](Cc3ccccc3)[C@H](O)CNCc3cccc(OC)c3)cc12 , inhibition observed: 0

compound CC(=O)c1cccc2[nH]c(C(=O)NC3CCC(CCN4CCc5ccc(C#N)cc5C4)CC3)cc12 (stereo not drawn) , inhibition observed: 12

compound N#Cc1ccc2c(c1)CCN(CCC1CCC(NC(=O)c3ccc(-c4ccccc4)s3)CC1)CC2 (stereo not drawn) , inhibition observed: 6

compound CC(=O)Nc1nc(C(=O)Nc2cccc(-c3ccc(-c4nc5ccc(F)cc5[nH]4)cc3)c2)cs1 , inhibition observed: 54

compound COc1ccc(Cn2c(N3CCN(S(=O)(=O)c4ccc(OC)cc4)CC3)nc3c2c(=O)n(CC2CC2)c(=O)n3CC2CC2)cc1 , inhibition observed: -12

// data source = PubChem BioAssay
